Ref: patent US20240059769A1

Target: recombinant human IL-13 (human, UniProt P35225 35-146)
Sequence (P35225 35-146 limits assumed): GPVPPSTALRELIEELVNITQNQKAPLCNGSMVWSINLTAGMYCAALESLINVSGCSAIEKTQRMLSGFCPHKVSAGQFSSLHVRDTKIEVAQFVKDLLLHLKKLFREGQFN
Measurement notes: cell-based or functional assay
I'd be grateful if you could share measured HEK-IL-13 [nM] (IC50, STAT6 reporter) for these entries.
Hi! Could you send only the number? It should be in nM, unit omitted.

Query :: // lookup HEK-IL-13 [nM] (IC50, STAT6 reporter) for BDG38.103 (antibody, V domains shown) VH: QMQLVESGGGVVQPGRSLRLSCAASGFEFRTYGMHWVRQAPGKGLEWVGVIWYDGSNTHYADSVKGRFTITRDNSKNTLNLQMNSLRVEDTAVYYCVRAPQWYLTAEAFDLWGQGTMVTVSS VL: SYVLTQPPSVSVAPGQTATITCGGNLIGARLVHWYQQKPGQAPVLVVYDDSDRPSRIPERFSGSNIGNTATLTISDVEEGDEADYYCQVWDYYSNSYVFGGGTKLTVL
Result :: 0.084

Query :: // lookup HEK-IL-13 [nM] (IC50, STAT6 reporter) for BDG38.093 (antibody, V domains shown) VH: QMQLVESGGGVVQPGRSLTLSCAASGFEFRTYGMHWVRQAPGKGLEWVGVIWYDGSNTHYADSVKGRFTITRDNSKNTLNLQMNSLRAEDTAVYYCVRAPQWYLTAEAFDLWGQGTMVTVSS VL: SYVLTQPPSVSVAPGQTARITCGGNLIGARLVHWYQQKPGQAPVLVIYDDSDRPSRIPERFSGSNIGNTATLTIERVEEGDEADYYCQVWDYSADSYVFGGGTKLTVL
Result :: 0.0402
